# Measurement Target: SQOR (Homo sapiens, UniProt Q9Y6N5)
# Sequence (Q9Y6N5 whole entry): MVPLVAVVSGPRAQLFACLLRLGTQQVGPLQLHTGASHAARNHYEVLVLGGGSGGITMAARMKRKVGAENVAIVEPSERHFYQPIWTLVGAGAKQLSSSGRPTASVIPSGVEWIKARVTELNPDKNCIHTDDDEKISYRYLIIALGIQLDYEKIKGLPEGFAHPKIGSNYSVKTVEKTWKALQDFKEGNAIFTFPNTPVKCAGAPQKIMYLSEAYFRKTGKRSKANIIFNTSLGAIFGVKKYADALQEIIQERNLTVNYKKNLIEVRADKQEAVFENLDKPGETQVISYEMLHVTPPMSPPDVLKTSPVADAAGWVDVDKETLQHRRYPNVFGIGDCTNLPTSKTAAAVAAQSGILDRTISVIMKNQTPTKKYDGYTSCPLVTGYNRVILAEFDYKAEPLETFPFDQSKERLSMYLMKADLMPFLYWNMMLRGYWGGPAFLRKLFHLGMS
# Experiment Summary: DCIP endpoint assay of SQOR activity
# Assay type: biochemical
# Condition Label: Table 3; read-out: IC50
pIC50: −log10 of the molar value.
Measurement Type: pIC50

Cc1cccnc1-c1cc(-c2ccc(F)cc2)c(C#N)c(OCCCN(C)C)n1 ... 5.57

[A] C=CCOc1nc(-c2ccccn2)cc(-c2ccc(F)cc2)c1C#N
[B] CC(=O)NCCOc1nc(-c2ccccn2)cc(-c2ccc(F)cc2)c1C#N
Challenge: # return whichever of A and B has the smaller pIC50 In your reply, give the label of the chosen option.
Response given: B
(B: 5.72, A: 8.14)

[1] COc1nc(-c2ccccc2)cc(-c2cccc(N)c2)c1C#N
[2] N#CCOc1nc(-c2ccccn2)cc(-c2ccc(F)cc2)c1C#N
Challenge: Higher pIC50 between 1 and 2 ? Refer to your chosen entry by its label in the reply.
Response given: 2
(2: 7.60, 1: 5.82)

====

# Measurement Target: SQOR (Homo sapiens)
# Experiment Summary: DCIP endpoint assay of SQOR activity
# Format: biochemical
# Condition Label: Table 3; read-out: IC50
Measurement Type: IC50 (nM)

Consider the following illustrative entries.
CCOC(=O)N1CCN(CCOc2nc(-c3ncccc3C)cc(-c3ccc(F)cc3)c2C#N)CC1 ... 230
COc1nc(-c2ccccc2)cc(-c2cccc(O)c2)c1C#N ... 1900

[a] Cc1cccnc1-c1cc(-c2ccc(F)cc2)c(C#N)c(OCc2ccccn2)n1
[b] N#Cc1c(-c2ccc(F)cc2)cc(-c2ccccn2)nc1OC[C@H]1CCC(=O)N1
[c] COc1nc(-c2cccc(O)c2)cc(-c2ccc(F)cc2)c1C#N
Challenge: Arrange by IC50, high to low. Your task in answering is to list the labels in the requested order.
Response given: b, c, a
(b: 2700 nM, c: 230 nM, a: 32 nM)

====

# Measurement Target: SQOR (Homo sapiens, UniProt Q9Y6N5)
# Experiment Summary: DCIP endpoint assay of SQOR activity
# Assay type: biochemical
# Condition Label: Table 1, SAR of Set A/A′ and Set B; read-out: IC50
Measurement Type: IC50 (nM)

COc1nc2c(c(-c3ccc(C(F)(F)F)cc3)c1C#N)Cc1ccccc1-2 [Compound 8] ... 1100
COc1cccc(-c2c(C#N)c(OC)nc3c2Cc2ccccc2-3)c1 [Compound 10] ... 6100
N#Cc1c(-c2ccccc2)cc(-c2ccc(O)cc2)nc1N [Compound 17] ... 12000

[A] COc1nc2c(c(-c3ccccc3)c1C#N)Cc1ccccc1-2 [Compound 4]
[B] N#Cc1c(-c2ccccc2)cc(-c2ccc(F)cc2)nc1N [Compound 14]
[C] Cc1ccc(C)c(-c2cc(-c3ccc4c(c3)OCO4)c(C#N)c(N)n2)c1 [Compound 15]
[D] Cc1ccc(-c2cc(-c3ccc4c(c3)OCO4)c(C#N)c(N)n2)cc1C [Compound 18]
[E] CCOc1nc2c(c(-c3ccc(OC)cc3)c1C#N)Cc1ccccc1-2 [Compound 5]
Challenge: Arrange the 5 molecules by rising IC50, starting with the smallest. In plain terms: list the labels in the order you were asked to.
Response given: A, E, B, C, D

====

# Measurement Target: SQOR (Homo sapiens)
# Experiment Summary: DCIP endpoint assay of SQOR activity
# Format: biochemical
# Condition Label: Table 3; read-out: IC50
# Protocol: The assay is based on the ability of reduced CoQ1, which is produced in the SQOR reaction, to nonenzymically reduce 2,6-dichloroindiphenol (DCIP) (Δεox-red=20 mM−1 cm−1 at 600 nm). Reaction mixtures containing SQOR, substrates (H2S, sulfite, CoQ1) and various concentrations of an inhibitor are incubated in 96-well plates for 60 s. […] The absorbance at 600 nm is read 30 s after DCIP addition by using a BioTek Synergy 2 plate reader.
pIC50: −log10 of the molar value.
Measurement Type: pIC50

CCOc1nc(-c2ccccc2)nc(-c2ccccc2)c1C#N ... 6.92

[1] Cc1cccnc1-c1cc(-c2ccc(F)cc2)c(C#N)c(=O)n1Cc1cccnc1
[2] COc1nc(-c2ccccc2)cc(-c2ccc(O)cc2)c1C#N
[3] COC(=O)COCCOc1nc(-c2ncccc2C)cc(-c2ccc(F)cc2)c1C#N
[4] COc1nc(-c2ccccc2N)cc(-c2ccc(F)cc2)c1C#N
Challenge: Returns the items ordered by pIC50, from maximum to minimum. Note for the reader: the ranking is given by listing the labels in the order requested.
Response given: 3, 4, 2, 1

====

# Measurement Target: SQOR (Homo sapiens)
# Experiment Summary: DCIP endpoint assay of SQOR activity
# Format: biochemical
# Condition Label: Table 3; read-out: IC50
Measurement Type: IC50 (nM)

// worked examples, IC50 included
CN(C)CCCOc1nc(-c2ccccn2)cc(-c2ccc(F)cc2)c1C#N ... 2200
COc1nc(-c2ccccc2)cc(-c2ccccc2)c1C ... 440
COc1ccc(-c2cc(-c3ncccc3C)nc(OC)c2C#N)cc1 ... 670

[A] Cc1cccnc1-c1cc(-c2ccc(F)cc2)c(C#N)c(OCCN2CCOCC2)n1
[B] N#Cc1c(-c2ccc(F)cc2)cc(-c2ccccn2)nc1OC[C@@H]1CCC(=O)N1
Challenge: Larger number for IC50: A , or B ? When you have decided, please share the label of that item.
Response given: B

====

# Measurement Target: SQOR (Homo sapiens)
# Experiment Summary: DCIP endpoint assay of SQOR activity
# Assay type: biochemical
# Condition Label: Table 2, SAR of Set C; read-out: IC50
pIC50: −log10 of the molar value.
Measurement Type: pIC50

[a] COc1ccc(Sc2ccc(C)cc2)c([N+](=O)[O-])c1
[b] Cc1cc([N+](=O)[O-])c(S(=O)(=O)c2ccccc2)cc1C(=O)c1ccccc1
[c] Cc1ccc(Sc2cc(N3CCOCC3)c(C)cc2[N+](=O)[O-])cc1
[d] Cc1cc([N+](=O)[O-])c(Sc2ccc(Cl)cc2)cc1C1SCCS1
Challenge: Put the items above in order of decreasing pIC50. Write the labels out in the order the request specifies.
Response given: c, d, b, a

====

# Measurement Target: UniProt Q9Y6N5
# Experiment Summary: DCIP endpoint assay of SQOR activity
# Format: biochemical
# Condition Label: Table 1, SAR of Set A/A′ and Set B; read-out: IC50
Measurement Type: IC50 (nM)

Recorded results for 5 compounds are shown here.
Cc1ccc(-c2cc(-c3ccccc3)c(C#N)c(N)n2)cc1 ... 11000
O=[N+]([O-])c1cc(Cl)c(-n2cccc2)cc1N1CCCCC1 ... 25
CCOc1nc(-c2ccccc2)cc(-c2ccc3c(c2)OCO3)c1C#N ... 890
CCOC(=O)COc1nc(-c2ccccc2)cc(-c2ccccc2)c1C#N ... 30
COc1nc2c(c(-c3ccccc3Cl)c1C#N)Cc1ccccc1-2 ... 340

[A] O=[N+]([O-])c1cc(Cl)c(-n2cccc2)cc1N1CCCC1
[B] CCOc1nc(-c2ccccc2)cc(-c2ccccc2)c1C#N
Challenge: Which of the two gives a bigger number for IC50: A or B ? # answer = label of selected item
Response given: A

[a] COc1nc2c(c(-c3ccc(SC)cc3)c1C#N)Cc1ccccc1-2
[b] O=[N+]([O-])c1cc(Cl)c(-n2cccc2)cc1N1CCOCC1
Challenge: Lab note: check whether a or b shows the higher recorded IC50. Lab note: record the label of whichever item you select.
Response given: a

====

# Measurement Target: SQOR (Homo sapiens, UniProt Q9Y6N5)
# Experiment Summary: DCIP endpoint assay of SQOR activity
# Assay type: biochemical
# Condition Label: Table 3; read-out: IC50
pIC50: −log10 of the molar value.
Measurement Type: pIC50

Cc1cccnc1-c1cc(-c2ccc(F)cc2)c(C#N)c(OCc2ccncc2)n1 ... 6.92

[I] Cc1cccnc1-c1cc(-c2ccc(F)cc2)c(C#N)c(=O)n1CCN1CCOCC1
[II] Cc1cccnc1-c1cc(-c2ccc(F)cc2)c(C#N)c(OCc2cccnc2)n1
[III] COc1nc(-c2ccc(O)cc2)cc(-c2ccc(F)cc2)c1C#N
[IV] Cc1cccnc1-c1cc(-c2ccc(F)cc2)c(C#N)c(OCCN2CCN(C(=O)OC(C)C)CC2)n1
Challenge: Arrange these molecules by their pIC50, starting with the largest number. Write out the labels following the order that was asked for.
Response given: II, IV, III, I
(II: 7.40, IV: 6.92, III: 6.00, I: 4.85)

====

# Measurement Target: SQOR (Homo sapiens, UniProt Q9Y6N5)
# Experiment Summary: DCIP endpoint assay of SQOR activity
# Type: biochemical
# Condition Label: Table 3; read-out: IC50
pIC50: −log10 of the molar value.
Measurement Type: pIC50

COC(=O)N1CCN(CCOc2nc(-c3ncccc3C)cc(-c3ccc(F)cc3)c2C#N)CC1 ... 6.27

[I] COc1nc(-c2ccccn2)cc(-c2ccco2)c1C#N
[II] COc1nc(-c2ccccc2[N+](=O)[O-])cc(-c2ccc(F)cc2)c1C#N
[III] COc1nc(-c2ccccc2)cc(-c2ccc(N)cc2)c1C#N
[IV] COc1nc(-c2ccccc2)cc(-c2cccc([N+](=O)[O-])c2)c1C#N
Challenge: Place the items in sequence of falling pIC50. Reply format: the labels, ordered as requested.
Response given: II, III, I, IV
(II: 8.15, III: 7.04, I: 6.17, IV: 4.32)
